Each recorded value in this set is attributed to patent US5352707A.

target: H3 receptor (Cavia porcellus, UniProt Q9JI35)
Sequence (Q9JI35 whole entry): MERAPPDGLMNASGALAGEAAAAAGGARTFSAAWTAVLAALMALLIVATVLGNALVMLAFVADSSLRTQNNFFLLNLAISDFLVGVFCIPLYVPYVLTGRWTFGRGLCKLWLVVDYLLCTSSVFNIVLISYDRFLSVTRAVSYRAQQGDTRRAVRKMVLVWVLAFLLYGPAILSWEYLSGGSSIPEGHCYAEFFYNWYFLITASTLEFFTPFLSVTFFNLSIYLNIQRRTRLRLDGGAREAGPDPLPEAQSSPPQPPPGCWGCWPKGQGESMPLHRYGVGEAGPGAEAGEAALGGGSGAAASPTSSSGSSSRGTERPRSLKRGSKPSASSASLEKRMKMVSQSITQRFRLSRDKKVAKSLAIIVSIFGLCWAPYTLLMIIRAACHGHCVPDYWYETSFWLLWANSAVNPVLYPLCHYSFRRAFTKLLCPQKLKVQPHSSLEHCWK

# Molecule, Target Desc, IC50
rows = [
    ("CN(C)CCCOc1c(Br)cc(CCN(C)C)cc1Br [Aplysamine-1]", "H3 receptor (Cavia porcellus, UniProt Q9JI35)", "833 nM"),
]
